tested.system: T1, biotinylated goat anti-human kappa light chain
T1 construct: Positive control of the ELISA
test.name: ELISA, positive control; note: test concentration or dose not given here
reported.endpoint: optical density (OD)
Enter your answer as a number in OD; do not include the unit.

Guide cases for optical density, answers given:
{"columns": ["binder", "quantitative.readout"],
 "data": [
  ["365_H04 (antibody, V domains shown, VH and VL only) VH: EVQLLESGGGLVQPGGSLRLSCAASGFTFSDYGMNWVRQAPGKGLEWVSGINYNSGYKSYADSVKGRFTISRDNSKNTLYLQMNSLRAEDTAVYYCARSATWHDTHLDYWGQGTLVTVSS VL: DIQMTQSPSSLSASVGDRVTITCRASQSILTYVNWYQQKPGKAPKLVIYAATSRASGVPSRFSGSGSGTDFTLTISSLQPEDFATYYCQQSYESPLTFGGGTKVEIK", 3.5],
  ["371_B10 (antibody, V domains shown, VH and VL only) VH: EVQLLESGGGLVQPGGSLRLSCAASGFTFDSYSMNWVRQAPGKGLEWVSNINYNGGYTGYADSVKGRFTISRDNSKNTLYLQMNSLRAEDTAVYYCARSATWHDTHLDYWGQGTLVTVSS VL: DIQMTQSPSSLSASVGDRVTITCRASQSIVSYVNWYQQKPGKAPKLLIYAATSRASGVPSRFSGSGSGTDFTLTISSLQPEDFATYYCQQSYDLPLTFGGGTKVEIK", 3.44],
  ["366_C07 (antibody, V domains shown, VH and VL only) VH: EVQLLESGGGLVQPGGSLRLSCAASGFTFSSYSMNWVRQAPGKGLEWVSNINYNGGYTSYADSVKGRFTISRDNSKNTLYLQMNSLRAEDTAVYYCARSATWHDTHLDYWGQGTLVTVSS VL: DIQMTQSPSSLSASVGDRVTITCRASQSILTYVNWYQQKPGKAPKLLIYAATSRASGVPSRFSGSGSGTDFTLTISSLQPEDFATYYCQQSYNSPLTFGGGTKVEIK", 3.37],
  ["367_H04 (antibody, V domains shown, VH and VL only) VH: EVQLLESGGGLVQPGGSLRLSCAASGFTFSSYSMNWVRQAPGKGLEWVSSINYNGGYTSYADSVKGRFTISRDNSKNTLYLQMNSLRAEDTAVYYCARSATWHDTHLDYWGQGTLVTVSS VL: DIQMTQSPSSLSASVGDRVTITCRASQSILTYVNWYQQKPGKAPKLLIYAATSRHSGVPSRFSGSGSGTDFTLTISSLQPEDFATYYCQQSDNNPLTFGGGTKVEIK", 3.4],
  ["369_A01 (antibody, V domains shown, VH and VL only) VH: EVQLLESGGGLVQPGGSLRLSCAASGFTFDSYSMNWVRQAPGKGLEWVSGINYNSGYKGYADSVKGRFTISRDNSKNTLYLQMNSLRAEDTAVYYCARSATWHDTHLDYWGQGTLVTVSS VL: DIQMTQSPSSLSASVGDRVTITCRASQSILTYVNWYQQKPGKAPKLVIYAATSLASGVPSRFSGSGSGTDFTLTISSLQPEDFATYYCQQSYELPLTFGGGTKVEIK", 3.55],
  ["366_E03 (antibody, V domains shown, VH and VL only) VH: EVQLLESGGGLVQPGGSLRLSCAASGFTFDSYGMNWVRQAPGKGLEWVSNINYNGGYKSYADSVKGRFTISRDNSKNTLYLQMNSLRAEDTAVYYCARSATWHDTHLDYWGQGTLVTVSS VL: DIQMTQSPSSLSASVGDRVTITCRASQSILTYLNWYQQKPGKAPKLVIYAATSRHSGVPSRFSGSGSGTDFTLTISSLQPEDFATYYCQQSYSNPLTFGGGTKVEIK", 3.54]
]}

Ask: Endpoint output: optical density of 370_A08 (antibody, V domains shown, VH and VL only) VH: EVQLLESGGGLVQPGGSLRLSCAASGFTFDSYSMNWVRQAPGKGLEWVSSINYNSGYTGYADSVKGRFTISRDNSKNTLYLQMNSLRAEDTAVYYCARSATWHDTHLDYWGQGTLVTVSS VL: DIQMTQSPSSLSASVGDRVTITCRASQSIVTYLNWYQQKPGKAPKLVIYAATSRASGVPSRFSGSGSGTDFTLTISSLQPEDFATYYCQQSYDLPLTFGGGTKVEIK . Value?
Reply: 3.52

Ask: What would you report for 369_G09 (antibody, V domains shown, VH and VL only) VH: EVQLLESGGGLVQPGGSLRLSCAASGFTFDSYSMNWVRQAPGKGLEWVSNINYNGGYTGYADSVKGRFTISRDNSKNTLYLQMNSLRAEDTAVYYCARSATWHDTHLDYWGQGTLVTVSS VL: DIQMTQSPSSLSASVGDRVTITCRASQSIVTYLNWYQQKPGKAPKLLIYAATSRASGVPSRFSGSGSGTDFTLTISSLQPEDFATYYCQQSYDLPLTFGGGTKVEIK ?
Reply: 3.6

Ask: What would you report for 376_G11 (antibody, V domains shown, VH and VL only) VH: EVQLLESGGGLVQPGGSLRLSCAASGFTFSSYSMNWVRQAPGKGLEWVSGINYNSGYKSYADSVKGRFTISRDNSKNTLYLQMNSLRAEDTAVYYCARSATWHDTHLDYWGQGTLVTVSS VL: DIQMTQSPSSLSASVGDRVTITCRASQSIVTYVNWYQQKPGKAPKLVIYAATSLASGVPSRFSGSGSGTDFTLTISSLQPEDFATYYCQQSYNLPLTFGGGTKVEIK ?
Reply: 3.54

Ask: What would you report for 374_B11 (antibody, V domains shown, VH and VL only) VH: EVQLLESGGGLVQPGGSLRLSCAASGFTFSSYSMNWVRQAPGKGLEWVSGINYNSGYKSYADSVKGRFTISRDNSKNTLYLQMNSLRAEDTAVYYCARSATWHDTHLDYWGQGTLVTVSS VL: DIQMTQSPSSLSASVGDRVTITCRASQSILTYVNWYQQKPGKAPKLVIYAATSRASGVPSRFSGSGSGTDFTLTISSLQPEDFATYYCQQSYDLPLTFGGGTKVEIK ?
Reply: 3.17
